# target-or-system: wild type human RORγt LBD (Homo sapiens)
# Construct: expressed in transfected cells; host or cells: HEK293T
# Sequence (P51449 258-518): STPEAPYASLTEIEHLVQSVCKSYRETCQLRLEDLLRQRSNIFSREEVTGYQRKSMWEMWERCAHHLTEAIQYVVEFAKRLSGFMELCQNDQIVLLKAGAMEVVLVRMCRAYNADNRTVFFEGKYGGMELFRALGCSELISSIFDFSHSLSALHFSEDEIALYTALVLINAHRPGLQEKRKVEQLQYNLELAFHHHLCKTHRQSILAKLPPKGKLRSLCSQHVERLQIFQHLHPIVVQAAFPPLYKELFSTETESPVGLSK
# procedure-details: RORγt (LBD) Reporter Assay (GAL4-luciferase, HEK293T cells)
# Assay type: cell-based
# condition-summary: HEK293T cells
Entries and their IC50

compound: Cc1cc(C(O)(c2ccc(C(F)(F)F)nc2)c2cncn2C)cc2c(Cl)c(Cc3ccc(-n4cccn4)cc3)c(N3CCC3)nc12 (single isomer, unassigned) [Example 137c]
target-or-system: wild type human RORγt LBD (Homo sapiens)
output-unit: nM
IC50: 140

compound: COc1nc2ccc(C(O)(c3cnnn3C)C3CNC3)cc2c(Cl)c1Cc1ccc(C(F)(F)F)cc1 (stereo not drawn)
target-or-system: wild type human RORγt LBD (Homo sapiens)
output-unit: nM
IC50: 670

compound: CCN(CC)c1nc2ccc(C(O)(c3ccc(Cl)cc3)c3cncn3C)cc2c(C#N)c1Cc1ccc(-n2cccn2)cc1 (single isomer, unassigned) [Example 154b]
target-or-system: wild type human RORγt LBD (Homo sapiens)
output-unit: nM
IC50: 140

compound: Cn1cncc1C(O)(c1ccc(C(F)(F)F)nc1)c1ccc2nc(N3CC(F)C3)c(Cc3ccc(-n4cccn4)cc3)c(Cl)c2c1 (single isomer, unassigned) [Example 147c]
target-or-system: wild type human RORγt LBD (Homo sapiens)
output-unit: nM
IC50: 52

compound: Cc1ccc(C(O)(c2ccc3nc(N4CC(F)(F)C4)c(Cc4ccc(C(F)(F)F)cc4)c(Cl)c3c2)c2cnnn2C)c(C)n1 (single isomer, unassigned) [Example 148b]
target-or-system: wild type human RORγt LBD (Homo sapiens)
output-unit: nM
IC50: 460

Data origin, for the record: patent EP3057951B1
